I'd appreciate it if you could supply pIC50 values for the items below.
Test system: BT474 (human breast carcinoma)
Assay remarks: In vitro tumor cell proliferation assay (Cell Titer-Glo luminescent cell viability), BT474
Type: cell-based
Conditions: BT-474, 72 h, BT474 cells, 72 hours of drug exposure, ATP luminescence readout, read-out: IC50, anti-proliferative activity (inhibition of cell proliferation)
pIC50: −log10 of the molar value. Where a name gives a salt, the structure may show the parent alone.

Inquiry: State pIC50 on BT474 (human breast carcinoma). Entry: `CN1CCN(CCn2cc3c(n2)CCc2c-3sc3ncnc(Nc4ccc(N5CCOCC5)c(Cl)c4)c23)CC1`
Reply text: ≥ 5.30

Inquiry: # lookup: BT474 (human breast carcinoma) pIC50, key = `Fc1cccc(Cn2ncc3cc(Nc4ncnc5sc6c(c45)CCc4c-6cnn4CCN4CCOCC4)ccc32)c1`
Reply text: ≥ 6.00

Inquiry: Under BT474 (human breast carcinoma): report pIC50 of `Fc1ccc(Nc2ncnc3sc4c(c23)CCc2n[nH]cc2-4)cc1Cl` .
Reply text: ≥ 5.30

Inquiry: Return reported pIC50 for target or system BT474 (human breast carcinoma), item `OCCn1cc2c(n1)CCc1c-2sc2ncnc(Nc3ccc4c(cnn4Cc4ccccc4)c3)c12` .
Reply text: ≥ 6.00

Inquiry: Answer with pIC50 of `CCN1CCN(C(=O)Cn2ncc3c2CCc2c-3sc3ncnc(Nc4ccc(OCc5cccc(F)c5)c(Cl)c4)c23)CC1` measured for BT474 (human breast carcinoma).
Reply text: ≥ 6.00

Inquiry: Name the value of pIC50 reported for `Fc1cccc(COc2ccc(Nc3ncnc4sc5c(c34)CCc3c-5cnn3CCCN3CCOCC3)cc2Cl)c1` when tested on BT474 (human breast carcinoma).
Reply text: ≥ 6.00

Inquiry: Specify the recorded pIC50 for `CCCN1CCC(n2cc3c(n2)CCc2c-3sc3ncnc(Nc4ccc(OCc5cccc(F)c5)c(Cl)c4)c23)CC1` , system: BT474 (human breast carcinoma).
Reply text: ≥ 6.00

Inquiry: Enter measured pIC50, system BT474 (human breast carcinoma), for the compound shown: `Cc1cc(Nc2ncnc3sc4c(c23)CCc2c-4cnn2CCN2CCN(C)CC2)ccc1O`
Reply text: ≥ 4.30

Inquiry: Name the value of pIC50 reported for `CCCN1CCC(Cn2cc3c(n2)CCc2c-3sc3ncnc(Nc4ccc(OCc5cccc(F)c5)c(Cl)c4)c23)CC1` when tested on BT474 (human breast carcinoma).
Reply text: ≥ 6.00

Inquiry: Give the observed pIC50 of CC(C)NC[C@@H](O)Cn1ncc2c1CCc1c-2sc2ncnc(Nc3ccc(OCc4cccc(F)c4)c(Cl)c3)c12 [Example 163, trifluoroacetate] for BT474 (human breast carcinoma).
Reply text: ≥ 5.30

Inquiry: State, for BT474 (human breast carcinoma), measured pIC50 of the compound listed here: `Cc1nccn1CCn1cc2c(n1)CCc1c-2sc2ncnc(Nc3ccc(F)c(Cl)c3)c12`
Reply text: ≥ 5.30

Inquiry: Write down measured pIC50 (BT474 (human breast carcinoma)) for this compound. CN(C)C1CCN(C(=O)Cn2ncc3c2CCc2c-3sc3ncnc(Nc4ccc(OCc5cccc(F)c5)c(Cl)c4)c23)C1 (stereo in doubt) [Example 208]
Reply text: ≥ 6.00

Inquiry: Supply pIC50 measured with BT474 (human breast carcinoma) for `CN1CCN(CCn2cc3c(n2)CCc2c-3sc3ncnc(Nc4ccc(OCc5ccccc5)c(Cl)c4)c23)CC1` .
Reply text: ≥ 6.00

Inquiry: Print BT474 (human breast carcinoma) pIC50 for `CCN1CCN(CCn2ncc3c2CCc2c-3sc3ncnc(Nc4ccc5c(cnn5Cc5cccc(F)c5)c4)c23)CC1` .
Reply text: ≥ 6.00

Inquiry: Give the observed pIC50 of `OCCn1ncc2c1CCc1c-2sc2ncnc(Nc3ccc(OCc4cccc(F)c4)c(Cl)c3)c12` for BT474 (human breast carcinoma).
Reply text: ≥ 6.00

Values compiled from patent US8207172B2.
